- System: CCRIS mutagenicity, Ames/micronucleus/aberration tests
- experimental.details: CCRIS mutagenicity studies
- experimental.context: Test System: AMES SALMONELLA TYPHIMURIUM; Strain/Indicator: YG1020; Metabolic Activation: NONE; Method: PREINCUBATION
Active and inactive are the calls of the source. No rule for the calls is given here.
Please reply with one of these outcomes: class 1 for active, class 0 for inactive

>>> assigned_label("Nc1ncnc2c1ncn2Cc1ccc([N+](=O)[O-])cc1")
"class 0"
>>> assigned_label("Cc1cccn2c1nc1ccc(NO)nc12")
"class 1"

Dear all, I need the recorded test outcome for Nc1nc(-c2ccc([N+](=O)[O-])cc2)nc2c1ncn2[C@@H]1O[C@H](CO)[C@@H](O)[C@H]1O , thank you.
class 1

Taken from PubChem BioAssay AID1259407.
